Recorded measurements of IC50, one per entry
- TARGET SYSTEM: T1, biotinylated synthetic human Amyloid beta 1-42 peptide (human, UniProt P05067 672-713, biotinylated (N-terminal biotin in Example 4))
- T1 construct: domain: Amyloid beta 1-42 peptide; Numbers 1-42 count on the Amyloid beta peptide, not on APP; also called biotinylated human Amyloid beta 1-42; N-terminal biotin Abeta 1-42
- T1 sequence (P05067 672-713 limits assumed): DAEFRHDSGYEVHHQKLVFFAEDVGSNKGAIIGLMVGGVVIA
- ASSAY DETAILS: HTRF epitope competition; purified scFv titrated; competitor Abet0144-GL IgG1-TM
MEASURE NAME: IC50 (nM)

| BINDER | MEASURE NAME | SCALE UNIT | REPORTED RESULT |
| --- | --- | --- | --- |
| Abet0377 scFv (scFv, V domains shown, not shown: small tags and cut ends, Purified scFv expressed in E. coli) VH: EVQLLESGGGLVQPGGSLRLSCAASGFNFNEQTLWWVRQAPGKGLEWVSVIGVGTKNIAYADTVKGRFTISRDNSKNTLYLQMNSLRAEDTAVYYCAREWMDHSRPYYYYGMDVWGQGTLVTVSS VL: SYELTQPPSVSVSPGQTASITCSGHNTEHKWISWYQQKPGQSPVLVIYRDDKRPSGIPERFSATNSGHTATLTISGTQATDEADYYCSSQDTVTRVFGGGTKLTVL | IC50 | nM | 0.32 |
| Abet0332 scFv (scFv, V domains shown, not shown: small tags and cut ends, Purified scFv expressed in E. coli) VH: EVQLLESGGGLVQPGESLRLSCAASSDSWHTDIMWWVRQAPGKRLEWVSVIGNSNKKIAYADSVKGRFTISRDNSKNTLYLQMNSLRAEDTAVYYCAREWMDHSRPYYYYGMDVWGQGTLVTVSS VL: SYELTQPPSVSVSPGQTASITCSGHNIGAKWVSWYQQKPGQSPILVIYRDDKRPSGIPERFSASNSGHTATLTISGTQATDEADYYCQAQGQVTRSFGGGTKLTVL | IC50 | nM | 0.91 |
| Abet0342 scFv (scFv, V domains shown, not shown: small tags and cut ends, Purified scFv expressed in E. coli) VH: EVQLLESGGGLVQPGGSLRLSCAASGFDFRRSVMWWVRQAPGKGLEWVSVIGAQTQNKAYADSVKGRFTISRDNSKNTLYLQMNSLRAEDTAVYYCAREWMDHSRPYYYYGMDVWGQGTLVTVSS VL: SYELTQPPSVSVSPGQTASITCSGHNLEDKFASWYQQKPGQSPVLVIYRDDKRPSGIPERFSASNSGDTATLTISGTQAMDEADYYCQAQDSTTRVFGGGTKLTVL | IC50 | nM | 0.59 |
